Where do the numbers come from? From PubChem BioAssay (NCI).

test system: UACC-62 melanoma; test: NCI-60 one-dose screen, 48 h (100 = growth as untreated, 0 = no growth, -100 = all killed); conditions: 10 µM unless noted
Compounds without any hit were thinned out: in the full panel of roughly 83,000, 20% have a hit. Activity calls are given as the source filed them. Rule for the calls: active = growth percent below 10; inactive = the rest.
RECORDED_ENDPOINT: growth

Bench note: what growth did O=S1(=O)NCCCN1CCNc1nccc(-c2c(-c3cccc(O)c3)nc3sccn23)n1 show?
-6.85% (active)

Do the same for CCN(CC)c1cc(C)c(Cc2c(OC)ccc3ccccc23)cc1C please
79.8% (inactive)

Also, CCOC(=O)c1ccc2c(c1)nc(-c1ccc(Cl)cc1)n2-c1cc(C(C)(C)C)[nH]n1 please.
25.5% (inactive)

Ok, now COc1cc(OC)c(C(=O)/C=C/c2cccc(OC(C)=O)c2)cc1CC=C(C)C
47.3% (inactive)

And then COc1cc(NC(=O)CSc2nc3ccc(Cl)cc3c(=O)n2Cc2ccccc2)cc(OC)c1OC , what is it?
43.2% (inactive)

Query CCN(CC)c1ccc2c(cc1=O)[C@@H](NC(C)=O)CCc1cc(OC)c(OC)c(OC)c1-2 next
19.4% (inactive)

Consider next the compound O=c1c2cc(Br)cc(Br)c2nc(-c2ccc(Cl)cc2)n1/N=C/c1cccc(F)c1 in the same way.
74.6% (inactive)

Another compound to look at: CC(C)(C)OC(=O)N1CCCN(CCNc2nccc(-c3c(-c4cccc(O)c4)nc4sccn34)n2)S1(=O)=O
12.1% (inactive)

Then O=C(O)C(CCc1ccccc1)NCc1ccccc1 (centres undefined) ?
94.5% (inactive)

----------
test system: SNB-19 CNS; assay: NCI-60 one-dose screen, 48 h; settings: 10 µM unless noted
About 83,000 compounds went through this panel and 20% of them were active in at least one assay; those are over-represented in the sample as a whole. Active and inactive are the calls of the source. Rule for the calls: active = growth percent below 10; inactive = the rest.
Outcome (select one): active, inactive

// param item: CC1OC(n2c3ccccc3c3c4c(c5c6ccccc6[nH]c5c32)C(=O)N(CCN[C@H]2CCC[C@@H]2N)C4=O)CC(O)C1O (stereo partly specified) ; yields the recorded call
inactive

Also check N#Cc1ccc(-c2ccc(-c3cccs3)o2)cc1F
inactive

Next up: C/C(=N\Nc1ccc([N+](=O)[O-])cn1)c1ccc(N)cc1
inactive

Queued: O=C(CC(=O)C(F)(F)C(F)(F)C(F)(F)F)c1cc2ccccc2o1
inactive

Also need N/C(=N\O)c1ncc(-c2ccc(C(F)(F)F)cc2)c(NC2CCCCCC2)n1 , thanks.
active

Request: COc1cc(CN(c2ccc(C)cc2)C2OC(=O)c3ccccc32)cc(OC)c1OC (stereo unspecified)
inactive

Repeat with CN(C)N1C(=O)c2c(Cl)c(Cl)c(Cl)c(Cl)c2C1=O
inactive

Same for COc1cc(NCCC2CCCCN2)c2ncccc2c1OC (stereo unspecified)
inactive

What do we get for CC(C)(C)c1ccc(OC(=O)Nc2ccccc2)cc1 ?
inactive

Note, next up: CCCCCCCC/C=C\CCCCCCCC(=O)OCCCCCC
inactive

Try COc1ccc(-n2nc(C(=O)Nc3ccc(F)cc3)nc2-c2cc(OC)c(OC)c(OC)c2)cc1 next.
inactive

----------
tested on: MCF7 breast; assay: NCI-60 one-dose screen, 48 h (100 = growth as untreated, 0 = no growth, -100 = all killed); settings: 10 µM unless noted
About 83,000 compounds went through this panel and 20% of them were active in at least one assay; those are over-represented in the sample as a whole.
Please go through the items and note down their growth.
I only need the number, in %, no unit after it.

Recorded growth of CCOC(=O)C(CCCCC(NC(C)=O)(C(=O)OCC)C(=O)OCC)(NC(C)=O)C(=O)OCC , please.
98.3

Quick one: Nc1ccc(C2=NNC(=O)Cc3cc4c(cc32)OCCO4)cc1Cl
18.8

Field entry: Clc1cc2nc(-c3ccccc3)c(-c3ccccc3)nc2cc1Cl
78.1

Request: CN1C2CCC1/C(=C\c1ccc(Cl)cc1)C(=O)/C2=C/c1ccc(Cl)cc1
22.7

Now the same for CC(C)(C)c1nn(-c2ccccc2)c2c1C(=O)CSC(c1ccc3c(c1)OCO3)N2 (stereo not given)
90.3

----------
system: RXF 393 renal; experiment: NCI-60 one-dose screen, 48 h (100 = growth as untreated, 0 = no growth, -100 = all killed); details: 10 µM unless noted
This is part of a sample that, as a whole, favours compounds with a hit. Of some 83,000 tested, about 20% had one in any assay.
Provide the reported growth of each item.
Reply with just the number (in %).

Provide the documented growth with RXF 393 renal as the system for CSc1nc(N)c2[nH]c(-c3cc4ccccc4[nH]c3=O)nc2n1
76.8

Also, Cc1nn(-c2cccc(Cl)c2)c(C)c1N=Nc1ccc(Br)cc1 please.
110

Try O=C1CCCN1C(O)CCN(Cc1ccccc1)Cc1ccc(Cl)cc1 (configuration not stated) next.
123

One more molecule: COc1ccc([C@H]2c3[nH]c4ccccc4c3C[C@H]3C(=O)N(CCCCCCC(=O)NO)CC(=O)N23)cc1
22.2

Next up: CCOC(=O)Nc1ccc2nc(N3CCCCCC3)sc2c1
14.4

Same read-out for CC(C)OC1OC(OC(C)C)C(OC(C)C)OC1OC(C)C (configuration not stated) ?
127

Could you do the same for Cc1cc(O)ccc1Sc1ccccc1[N+](=O)[O-] , please?
106

Please answer likewise for O=C(CC(=O)c1ccccc1F)Nc1ccc([N+](=O)[O-])cc1
103

And CCCCCCCCCCCCCCCCCC(=O)[O][Sn]([CH2]CCC)([CH2]CCC)[CH2]CCC ?
-98

Entry CC1OC(n2c3ccccc3c3c4c(c5c6ccccc6[nH]c5c32)C(=O)N(CCN[C@H]2CCC[C@@H]2N)C4=O)CC(O)C1O (some centres not stated) please
63

Same again, this time with Cc1ccccc1C1CC(=O)c2ccccc2C1C (configuration not stated)
109

Another molecule: C=C1C[C@@]2(C)C(CC[C@]3(C)C2CC=C2C4CC(C)(C)C[C@@H](OC(=O)/C(C)=C\C)[C@]4(C(=O)O)CC[C@]23C)C(C)(C)C1=O (some centres not stated)
-75.6

Consider next the molecule CC(C)=CC[C@@H]1CC2(CC=C(C)C)C(=O)C(OC3(C(=O)c4ccccc4)C(=O)C4(CC=C(C)C)C[C@@H](CC=C(C)C)C(C)(C)C(CC=C(C)C)(C4=O)C3=O)(C(=O)c3ccccc3)C(=O)C(CC=C(C)C)(C2=O)C1(C)C (some centres not stated) in the same way.
4.28

Input O=C(CC(=O)c1cccc(Cl)c1)c1cccc(Cl)c1
61.9

Can you check COc1ccc(/C(C)=N/NC(=O)CSc2nc3ccccc3c(=O)n2CCc2ccc(S(N)(=O)=O)cc2)cc1 next?
29.7

Can you check CN1CCC2(CC1)N=C(SCC(=O)Nc1cnc3ccccc3c1)C(c1ccc(Br)cc1)=N2 next?
24.3

Same question, CCCCOc1nc2ccccc2cc1/C=C/c1cc(/C=C/c2cc3ccccc3nc2OCCCC)n(-c2ccccc2)n1 this time
106

Entry to check: Cc1cccc(/C=N/n2c(-c3ccc(Cl)cc3)nc3c(Br)cc(Br)cc3c2=O)c1
61.3

Can you check CC(SC(C)C(=O)N/N=C/c1cccc(Cl)c1)C(=O)N/N=C\c1cccc(Cl)c1 (configuration not stated) next?
91.2

Another molecule: ClC1(Cl)C2CCCCCCC21 (configuration not stated)
117

Try this molecule next: C#CCO[C@H]1CC[C@H](OCC#C)[C@@H]2[C@H]1[C@H]1C[C@@H]3[C@@]4(C)CCC[C@@](C)(C(=O)OC)[C@@H]4CC[C@@]23C=C1C(C)C
94.9

Then CN1C(=O)N(C)C2C1NN=c1s/c(=C\c3ccc(Br)cc3)c(=O)n12 (configuration not stated) ?
9.08

And what about the molecule CC(=O)O[C@H]1CC[C@]2(C)[C@H]3CC=C4[C@@H]5CC(C)(C)CC[C@]5(C(=O)OCC(COC(=O)C(Cl)Cl)(COC(=O)C(Cl)Cl)NC(=O)C(Cl)Cl)CC[C@@]4(C)[C@]3(C)CC[C@H]2C1(C)C ?
74.7

Also, CCN1C(=O)N(CC)C2C1NN=c1s/c(=C\c3ccco3)c(=O)n12 (configuration not stated) please.
-2.28

What would you report for Cc1ccncc1NC=O ?
111

Same question for C=C1C(=O)O[C@H]2[C@H]1CC/C(COC(=O)NCc1cn(C)c3ccccc13)=C\CC[C@@]1(C)O[C@@H]21 please.
-93.7

Try this molecule next: COc1ccc(NC(=O)Cn2c(=O)sc3c(-c4ccc(Cl)cc4)cc(-c4ccc(Cl)cc4)nc32)cc1
110

And then CCCCCCCCCCCC1=NC(C)(C)CN1CCO , what is it?
35.4

Further, for CCCCCN(CCCCC)C(=O)C(CCC(=O)O)NC(=O)c1ccc(Cl)c(Cl)c1 (configuration not stated) ?
106

Lookup COc1cc(/C=N/NC(=O)Cn2c(-c3ccc(C)o3)nc3ccccc32)ccc1OCc1ccccc1
85.6

Now give it for CC(NC(=O)c1ccccc1)C(=O)Nc1ccccc1 (configuration not stated) too.
118

And then O=C(c1ccccc1)c1cccc(C(Br)Br)c1 , what is it?
95.7

// next record O=C(Nc1cccc(C2=NCCN2)c1)c1ccc(N=Nc2ccc(C(=O)Nc3cccc(C4=NCCN4)c3)cc2)cc1
105

Can you handle O=C(Nc1ccc(-n2ccc3c(NC(=O)c4ccccc4)nccc32)cc1)c1ccc(N2CCOCC2)c(C(F)(F)F)c1 next?
-66.5

And what about the molecule Cc1ccccc1Nc1n[nH]c(Cc2ccccc2)n1 ?
108

Next record, please: COc1cc(OC)c2sc(-c3ccc(-n4cncc4-c4ccc(OC)c(N)c4)cc3)nc2c1
75.4

Next: CCOC(=O)Cn1c(-c2nonc2NC(=O)c2ccccc2F)nc2ccccc21
64.7
